Molecular target: Retinoic acid receptor RXR-alpha (Homo sapiens)
Sequence (P19793 whole entry, the tested form may be a part): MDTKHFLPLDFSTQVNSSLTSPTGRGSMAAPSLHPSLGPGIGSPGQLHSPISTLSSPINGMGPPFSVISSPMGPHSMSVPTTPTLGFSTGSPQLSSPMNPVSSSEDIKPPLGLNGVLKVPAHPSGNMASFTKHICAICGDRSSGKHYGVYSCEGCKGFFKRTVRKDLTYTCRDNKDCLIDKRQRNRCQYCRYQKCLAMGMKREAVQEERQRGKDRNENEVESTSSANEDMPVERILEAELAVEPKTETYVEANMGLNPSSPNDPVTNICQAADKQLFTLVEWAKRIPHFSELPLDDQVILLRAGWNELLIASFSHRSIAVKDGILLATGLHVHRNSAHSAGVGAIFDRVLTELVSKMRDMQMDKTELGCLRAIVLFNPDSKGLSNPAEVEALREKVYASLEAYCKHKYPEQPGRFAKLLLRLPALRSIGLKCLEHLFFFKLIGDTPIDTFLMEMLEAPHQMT
Assay: Activity at RXRalpha by GAL4DNA cotransfection assay
pEC50: −log10 of the molar value.
# binarize pEC50: threshold 7 inclusive, high side t, low side f

{"Structure smiles": "CCN1C(=O)CC(C)(C)c2cc(C)c(-c3cc(/C=C/C(=O)O)ccc3OC(F)(F)F)cc21", "Qualitative label": "t"}
{"Structure smiles": "CCn1c(=O)c2c(c3ccc(-c4cc(/C=C/C(=O)O)ccc4OC(F)(F)F)cc31)CCC2", "Qualitative label": "f"}
{"Structure smiles": "CCN1C(=O)C(C)(C)Oc2cc(C)c(-c3cc(/C=C/C(=O)O)ccc3OC(F)(F)F)cc21", "Qualitative label": "f"}
{"Structure smiles": "CCN1C(=O)CC(C)(C)c2cc(C)c(-c3ccc(/C=C/C(=O)O)o3)cc21", "Qualitative label": "f"}
{"Structure smiles": "Cc1cc2c(cc1-c1cc(/C=C/C(=O)O)ccc1OC(F)(F)F)N(C)C(=O)CC2(C)C", "Qualitative label": "t"}
{"Structure smiles": "Cc1cc2c(cc1-c1cc(/C=C/C(=O)O)ccc1OCC(F)(F)F)N(C(C)C)C(=O)CC2(C)C", "Qualitative label": "t"}

* * *

Test: Activity at RXR-PPARgamma heterodimer in primary human preadipocytes assessed as induction of adipocytes fatty acid binding protein by bDNA assay
Format: cell-based

{"Structure smiles": "CCN1C(=O)CC(C)(C)c2cc(C)c(-c3cc(/C=C/C(=O)O)ccc3OCC(F)(F)F)cc21", "EC50": "> 3 µM"}
{"Structure smiles": "CCN1C(=O)C(C)(C)Oc2cc(C)c(-c3cc(/C(C)=C/C(=O)O)ccc3OC(F)(F)F)cc21", "EC50": "> 3 µM"}
{"Structure smiles": "Cc1cc2c(cc1-c1cc(/C=C/C(=O)O)ccc1OCC(F)(F)F)N(C(C)C)C(=O)CC2(C)C", "EC50": "> 3 µM"}
